Sourced from paper PMC6264767

# pEC50 annotations
- System: Vaccinia virus
- ASSAY_NOTES: microbe, parasite or virus in culture
- Format: cell-based
- EXPERIMENTAL_CONTEXT: Orthopoxvirus vaccinia, HEL, read-out: EC50 Vaccinia virus
pEC50: −log10 of the molar value.
OBSERVATION_TYPE: pEC50

{"COMPOUND": "O=c1oc2ccccc2c(O)c1C1c2cc([N+](=O)[O-])ccc2Oc2c1c(=O)oc1ccccc21 (stereo not shown) [Compound 19]", "EXPERIMENTAL_TARGET": "Vaccinia virus", "ENDPOINT_VALUE": "< 4.00"}
{"COMPOUND": "O=c1oc2ccccc2c(O)c1C(c1ccc(O)c(O)c1)c1c(O)c2ccccc2oc1=O [Compound 13]", "EXPERIMENTAL_TARGET": "Vaccinia virus", "ENDPOINT_VALUE": "< 4.70"}
{"COMPOUND": "O=c1oc2ccccc2c(O)c1C(c1cccc(Br)c1)c1c(O)c2ccccc2oc1=O [Compound 3]", "EXPERIMENTAL_TARGET": "Vaccinia virus", "ENDPOINT_VALUE": 4.96}
{"COMPOUND": "Nc1ccn(C[C@@H](CO)OCP(=O)(O)O)c(=O)n1 [Cidofovir, reference compound]", "EXPERIMENTAL_TARGET": "Vaccinia virus", "ENDPOINT_VALUE": 5.10}
{"COMPOUND": "CSc1ccc(C(c2c(O)c3ccccc3oc2=O)c2c(O)c3ccccc3oc2=O)cc1 [Compound 11]", "EXPERIMENTAL_TARGET": "Vaccinia virus", "ENDPOINT_VALUE": "< 4.70"}
{"COMPOUND": "COc1ccc(OC)c(C(c2c(O)c3ccccc3oc2=O)c2c(O)c3ccccc3oc2=O)c1 [Compound 14]", "EXPERIMENTAL_TARGET": "Vaccinia virus", "ENDPOINT_VALUE": "< 4.00"}
{"COMPOUND": "O=c1oc2ccccc2c(O)c1C(c1ccc(C(F)(F)F)cc1)c1c(O)c2ccccc2oc1=O [Compound 7]", "EXPERIMENTAL_TARGET": "Vaccinia virus", "ENDPOINT_VALUE": "< 5.40"}
{"COMPOUND": "O=c1[nH]c(=O)n([C@H]2C[C@H](O)[C@@H](CO)O2)cc1/C=C/Br [Brivudin, (E)-5-(2-bromovinyl)-2’-deoxyuridine, reference compound]", "EXPERIMENTAL_TARGET": "Vaccinia virus", "ENDPOINT_VALUE": 5.49}
{"COMPOUND": "COc1cc(C(c2c(O)c3ccccc3oc2=O)c2c(O)c3ccccc3oc2=O)cc([N+](=O)[O-])c1O [Compound 15]", "EXPERIMENTAL_TARGET": "Vaccinia virus", "ENDPOINT_VALUE": "< 4.00"}
{"COMPOUND": "Nc1nc2c(ncn2COCCO)c(=O)[nH]1 [Acyclovir, reference compound]", "EXPERIMENTAL_TARGET": "Vaccinia virus", "ENDPOINT_VALUE": "< 3.60"}
{"COMPOUND": "Nc1nc(O)c2ncn(COC(CO)CO)c2n1 [Ganciclovir, reference compound]", "EXPERIMENTAL_TARGET": "Vaccinia virus", "ENDPOINT_VALUE": "< 4.00"}
{"COMPOUND": "O=c1oc2ccccc2c(O)c1C(c1ccc([N+](=O)[O-])cc1)c1c(O)c2ccccc2oc1=O [Compound 8]", "EXPERIMENTAL_TARGET": "Vaccinia virus", "ENDPOINT_VALUE": "< 4.70"}
{"COMPOUND": "COc1cc(OC)c2c(c1)Oc1c(c(=O)oc3ccccc13)C2c1c(O)c2ccccc2oc1=O (stereo not shown) [Compound 20]", "EXPERIMENTAL_TARGET": "Vaccinia virus", "ENDPOINT_VALUE": "< 4.70"}
